FYI, the data here is from patent US20240075137A1.

targetSystem: T1, human PVRIG on cells (human, UniProt Q6DKI7 1-326)
T1 construct: whole, on cells; over-expressed on HEK cells or endogenous on Jurkat and CD8 T cells; also called hPVRIG; HEK hPVRIG cells
T1 sequence (looked up): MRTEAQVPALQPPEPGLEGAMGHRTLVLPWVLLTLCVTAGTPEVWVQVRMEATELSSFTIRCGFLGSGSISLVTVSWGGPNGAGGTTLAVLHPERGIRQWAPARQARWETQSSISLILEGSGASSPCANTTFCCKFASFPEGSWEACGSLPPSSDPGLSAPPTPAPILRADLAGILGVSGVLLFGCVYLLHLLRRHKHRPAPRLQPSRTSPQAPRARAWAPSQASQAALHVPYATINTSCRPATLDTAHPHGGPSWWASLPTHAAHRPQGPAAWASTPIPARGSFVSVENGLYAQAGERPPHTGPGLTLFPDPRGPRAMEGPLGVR
testMethodNotes: FACS, HEK hPVRIG cells (HEK OE)
Each item that follows carries a reported pEC50.
Scale explanation: pEC50 corresponds to minus log10 of a concentration expressed in moles per litre.

CHA.7.549 (antibody, V domains shown) VH: QVQLQQPGTELVKPGASVKLSCKASGFTFTTHWMHWVRQRPGQGLEWIGNIYPSNGGSNYNEKFKTKATLTVDRSSSTAYMHLSSLTSEDSAVYYCARRVNWDGYYFDYWGQGTTLTVSS VL: DIVMTQSQKFMSTSVGDRVSVTCKASQNVGTNVAWYQQKPGQSPKLLIYSASYRYSGVPDRFTGSGSGTDFTLTISNVQSEDLADYFCQQYNSYPLTFGGGTKLEIK = 8.59

Please look at the following binder next.
// pEC50 lookup, key: CHA.7.545 (antibody, V domains shown) VH: QIQLVQSGPDLKKPGETVKISCKASGYTFTTYGMSWVKQAPGRGLKWMGWINTYSGVSTFPDDFKGRFAFSLETSASTAYLQINNLKNEDSATYFCARLGMGSTTGAGYFDVWGTGTTVTVSS VL: DIVLTQSPAIMSASPGEKVTMTCSASSSVSSWYLHWYQQKSGASPKLWIYGTSNLASGVPARFSGSGSGTSYSLTISSVEAEDAATYYCQQYRSDPYTFGSGTKLEIK
9.12
